# TEST_METHOD_NOTES: Pharmacokinetic test in mice
# Assay type: in vivo
# PARTICULARS: male, ICR, mouse, po, administration i.g. (10 mg/kg), plasma
Overview of reported log10(AUC(0-t)) across a group of compounds:
Heads up, the numbers here are log10 of AUC(0-t) in ng·h/mL units.

Reference set, count: 5
[[record]]
compound = "COc1cc(N2CCC(N3CCN(CC4CCN(c5ccc6c(c5)C(=O)N(C5CCC(=O)NC5=O)C6=O)CC4)CC3)CC2)c(-c2cnn(C)c2)cc1Nc1ncc(Br)c(Nc2ccc(-c3ccccc3F)cc2P(C)(C)=O)n1 (stereo not drawn) [Compound 54]"
quantity = "log10(AUC(0-t))"
assay_value = 4.47

[[record]]
compound = "COc1cc(N2CCN(C3CCN(c4ccc5c(c4)C(=O)N(C4CCC(=O)NC4=O)C5=O)CC3)CC2)c(-c2cnn(C)c2)cc1Nc1ncc(Br)c(Nc2ccc(-c3ccccc3)cc2P(C)(C)=O)n1 (stereo not drawn) [Compound 99]"
quantity = "log10(AUC(0-t))"
assay_value = 4.40

[[record]]
compound = "COc1cc(N2CCN(CC3CCN(c4ccc5c(c4)C(=O)N(C4CCC(=O)NC4=O)C5=O)CC3)CC2)c(-c2cnn(C)c2)cc1Nc1ncc(Cl)c(Nc2ccc(-c3ccccc3F)cc2P(C)(C)=O)n1 (stereo not drawn) [Compound 97]"
quantity = "log10(AUC(0-t))"
assay_value = 4.63

[[record]]
compound = "COc1cc(N2CCC(N3CCN(CC4CCN(c5cc6c(cc5F)C(=O)N(C5CCC(=O)NC5=O)C6=O)CC4)CC3)CC2)c(-c2cnn(C)c2)cc1Nc1ncc(Br)c(Nc2ccc(-c3ccccc3)cc2P(C)(C)=O)n1 (stereo not drawn) [Compound 87]"
quantity = "log10(AUC(0-t))"
assay_value = 3.37

[[record]]
compound = "COc1cc(N2CCC(CN3CCC4(CC3)CCN(c3ccc5c(c3)C(=O)N(C3CCC(=O)NC3=O)C5=O)CC4)CC2)c(-c2cnn(C)c2)cc1Nc1ncc(Cl)c(Nc2ccc(-c3ccccc3)cc2P(C)(C)=O)n1 (stereo not drawn) [Compound 48]"
quantity = "log10(AUC(0-t))"
assay_value = 3.89


Tell me the measured log10(AUC(0-t)) of COc1cc(N2CCC(N3CCC4(CCCN(c5ccc6c(c5)C(=O)N(C5CCC(=O)NC5=O)C6=O)C4)CC3)CC2)c(-c2cnn(C)c2)cc1Nc1ncc(Br)c(Nc2ccc(-c3ccccc3)cc2P(C)(C)=O)n1 (stereo not drawn) [Compound 62] , please.
3.36

Tell me the measured log10(AUC(0-t)) of COc1cc(N2CCC(CN3CCC4(CC3)CCN(c3cc5c(cc3F)C(=O)N(C3CCC(=O)NC3=O)C5=O)CC4)CC2)c(-c2cnn(C)c2)cc1Nc1ncc(Br)c(Nc2ccc(-c3ccccc3)cc2P(C)(C)=O)n1 (stereo not drawn) [Compound 47] , please.
4.49

Tell me the measured log10(AUC(0-t)) of COc1cc(N2CCC(N3CCN(CC4CCN(c5ccc6c(c5)C(=O)N(C5CCC(=O)NC5=O)C6=O)C4)CC3)CC2)c(-c2cnn(C)c2)cc1Nc1ncc(Br)c(Nc2ccc(-c3ccccc3)cc2P(C)(C)=O)n1 (stereo not drawn) [Compound 76] , please.
4.29

Tell me the measured log10(AUC(0-t)) of COc1cc(N2CCC(N3CCN(CC4CCN(c5ccc6c(c5)C(=O)N(C5CCC(=O)NC5=O)C6=O)CC4)CC3)CC2)c(-c2cnn(C)c2)cc1Nc1ncc(Cl)c(Nc2ccc(-c3ccccc3)cc2P(C)(C)=O)n1 (stereo not drawn) [Compound 58] , please.
4.21
